# System: MCP-1RB receptor
# Format: cell-based, human
# run-conditions: Table I; read-out: Inhibition of Adenylyl Cyclase IC50 (nM) MCP-1RB

>  <substance>
RANTES: C--C chemokine, obtained from R&D

>  <IC50>
> 1000 nM

$$$$

This collection of values is drawn from patent US5707815A.
